Biological target: Neuronal acetylcholine receptor; alpha4/beta2 (Rattus norvegicus, UniProt P09483+P12390)
Sequence (P09483 whole entry): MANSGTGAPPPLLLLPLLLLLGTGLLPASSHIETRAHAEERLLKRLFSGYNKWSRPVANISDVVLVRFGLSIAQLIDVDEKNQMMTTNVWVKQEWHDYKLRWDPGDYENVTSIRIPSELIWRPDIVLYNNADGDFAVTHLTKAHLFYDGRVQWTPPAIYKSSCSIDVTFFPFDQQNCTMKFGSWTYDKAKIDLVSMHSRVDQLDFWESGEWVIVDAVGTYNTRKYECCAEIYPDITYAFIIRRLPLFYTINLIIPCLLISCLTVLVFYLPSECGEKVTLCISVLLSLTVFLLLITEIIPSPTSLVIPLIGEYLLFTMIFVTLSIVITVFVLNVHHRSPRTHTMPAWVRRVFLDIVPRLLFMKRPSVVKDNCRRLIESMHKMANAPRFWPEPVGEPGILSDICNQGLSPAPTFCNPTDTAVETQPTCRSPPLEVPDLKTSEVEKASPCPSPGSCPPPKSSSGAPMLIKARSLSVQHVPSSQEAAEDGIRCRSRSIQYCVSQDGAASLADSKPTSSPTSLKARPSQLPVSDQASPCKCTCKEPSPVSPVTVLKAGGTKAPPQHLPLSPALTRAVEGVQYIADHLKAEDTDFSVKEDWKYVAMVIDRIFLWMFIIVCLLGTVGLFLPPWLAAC
Sequence (P12390 whole entry): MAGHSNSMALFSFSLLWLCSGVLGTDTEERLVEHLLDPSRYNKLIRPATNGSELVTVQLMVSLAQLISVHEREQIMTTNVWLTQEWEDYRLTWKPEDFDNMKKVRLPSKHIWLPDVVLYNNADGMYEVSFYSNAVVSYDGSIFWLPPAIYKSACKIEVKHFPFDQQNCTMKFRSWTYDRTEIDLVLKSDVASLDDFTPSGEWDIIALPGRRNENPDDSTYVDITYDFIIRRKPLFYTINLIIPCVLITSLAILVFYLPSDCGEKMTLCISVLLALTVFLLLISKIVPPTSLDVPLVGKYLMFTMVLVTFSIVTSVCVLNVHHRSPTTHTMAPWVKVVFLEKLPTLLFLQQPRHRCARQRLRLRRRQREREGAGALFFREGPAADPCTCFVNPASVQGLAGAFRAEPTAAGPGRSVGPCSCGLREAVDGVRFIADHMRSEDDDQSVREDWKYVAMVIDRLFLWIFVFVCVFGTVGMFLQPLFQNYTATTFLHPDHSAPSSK
Experiment: Binding affinity for alpha4 beta-2 nAChR using [3H]epibatidine in rat brain
pKi: −log10 of the molar value.
measured endpoint: pKi

structure smiles string	tested on	qualifier symbol	recorded number
Clc1ncccc1OC[C@@H]1CCN1	Neuronal acetylcholine receptor; alpha4/beta2 (Rattus norvegicus, UniProt P09483+P12390)	=	11.08
c1cncc(OC[C@@H]2CCN2)c1	Neuronal acetylcholine receptor; alpha4/beta2 (Rattus norvegicus, UniProt P09483+P12390)	=	10.77
Fc1ccc(OC[C@@H]2CCN2)cn1	Neuronal acetylcholine receptor; alpha4/beta2 (Rattus norvegicus, UniProt P09483+P12390)	=	10.60
Brc1ncccc1OC[C@@H]1CCN1	Neuronal acetylcholine receptor; alpha4/beta2 (Rattus norvegicus, UniProt P09483+P12390)	=	9.62
Ic1ncccc1OC[C@@H]1CCN1	Neuronal acetylcholine receptor; alpha4/beta2 (Rattus norvegicus, UniProt P09483+P12390)	<	12.00
Fc1cncc(OC[C@@H]2CCN2)c1	Neuronal acetylcholine receptor; alpha4/beta2 (Rattus norvegicus, UniProt P09483+P12390)	=	10.60
Brc1cncc(OC[C@@H]2CCN2)c1	Neuronal acetylcholine receptor; alpha4/beta2 (Rattus norvegicus, UniProt P09483+P12390)	=	10.68
Ic1ccc(OC[C@@H]2CCN2)cn1	Neuronal acetylcholine receptor; alpha4/beta2 (Rattus norvegicus, UniProt P09483+P12390)	=	9.82
Clc1cncc(OC[C@@H]2CCN2)c1	Neuronal acetylcholine receptor; alpha4/beta2 (Rattus norvegicus, UniProt P09483+P12390)	=	10.52
